experiment_notes: chemical genetic growth profiling, strain panel (AID 1159580);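 note: tested at 20 µM; growth read once vehicle control cultures reached saturation at 30 °C; 1 = growth at the plate median or of vehicle wells; lower values mean less growth of the strain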
measurement_context: S. cerevisiae deletion strains, growth OD, locus YKL009W, strain mrt4, hits give low values
The whole screen tested about 5,500 compounds, of which about 2,000 (36%) were called active. About 18% were inconclusive and are not listed. The list shows a part of the results.
Reported normalized growth is given for each of the following molecules.
Form field (numeric): enter value without unit.

Below are worked cases with known answers.
1. CCn1cc(C(=O)O)c(=O)c2cc3c(cc21)OCO3    1.01
2. CC1CC2C(C(O)CC3(C)C2CCC3(O)C(=O)COC(=O)CCC(=O)O)C2(C)C=CC(=O)C=C12 (stereo not given)    0.97
3. CCOC(=O)C1=C[C@]2(CC)CCCN3CCc4c(n1c1ccccc41)[C@@H]32    0.964
4. CC12CCC(CC1)C(C)(C)O2    1.03

Please look at the following molecule next.
Inquiry: Consider the molecule shown here: "CC[C@]12CCCN3CCc4c(n(c5ccccc45)[C@](O)(C(=O)OC)C1)[C@@H]32" What is its recorded normalized growth?
Reply text: 0.985
